Origin of the recorded values: ChEMBL document CHEMBL1153083

Can you tell me selectivity ratio for the items I'm about to list?
- testProtocol: Selectivity index, ratio of TC50 for african green monkey (Cercopithecus aethiops) Vero cells to IC50 for Plasmodium falciparum W2
- Assay type: toxicity, cell-based
In your answer, state the number alone without any accompanying words.

So what does the record say about selectivity ratio for `C[C@H]1[C@@H](OCC[C@@H](CO[C@H]2O[C@@H]3O[C@@]4(C)CC[C@H]5[C@H](C)CC[C@@H]([C@H]2C)[C@@]35OO4)O[C@H]2O[C@@H]3O[C@@]4(C)CC[C@H]5[C@H](C)CC[C@@H]([C@H]2C)[C@@]35OO4)O[C@@H]2O[C@@]3(C)CC[C@H]4[C@H](C)CC[C@@H]1[C@@]24OO3` ?
22

Same again, this time with C[C@H]1[C@@H](OCC(CO[C@H]2O[C@@H]3O[C@@]4(C)CC[C@H]5[C@H](C)CC[C@@H]([C@H]2C)[C@@]35OO4)OS(C)(=O)=O)O[C@@H]2O[C@@]3(C)CC[C@H]4[C@H](C)CC[C@@H]1[C@@]24OO3 (stereo not given in full)
542

Same again, this time with C[C@H]1[C@@H](OCC(O)CO[C@H]2O[C@@H]3O[C@@]4(C)CC[C@H]5[C@H](C)CC[C@@H]([C@H]2C)[C@@]35OO4)O[C@@H]2O[C@@]3(C)CC[C@H]4[C@H](C)CC[C@@H]1[C@@]24OO3 (stereo not given in full)
100

----------
- Test system: KB
- testProtocol: Cytotoxicity against human KB cells after 48 hrs by neutral red assay
- Format: functional, cell-based
- measurementParameters: Homo sapiens, KB, 48 h; read-out: IC50
outcomeMeasure: pIC50
// pIC50 here means minus log10 of the molar concentration (mol/L)

So what does the record say about pIC50 for `COc1cccc2c1C(=O)c1c(O)c3c(c(O)c1C2=O)C[C@@](O)(C(=O)CO)C[C@@H]3O[C@H]1C[C@H](N)[C@H](O)[C@H](C)O1` ?
5.69

Same again, this time with C[C@H]1[C@@H](OC[C@@H]2O[C@@H]2CO[C@H]2O[C@@H]3O[C@@]4(C)CC[C@H]5[C@H](C)CC[C@@H]([C@H]2C)[C@@]35OO4)O[C@@H]2O[C@@]3(C)CC[C@H]4[C@H](C)CC[C@@H]1[C@@]24OO3 (relative stereo)
6.33

Same again, this time with `C[C@H]1[C@@H](OCC(=O)CO[C@H]2O[C@@H]3O[C@@]4(C)CC[C@H]5[C@H](C)CC[C@@H]([C@H]2C)[C@@]35OO4)O[C@@H]2O[C@@]3(C)CC[C@H]4[C@H](C)CC[C@@H]1[C@@]24OO3`
6.62

----------
Can you tell me CC50 for the items I'm about to list?
- testProtocol: Toxicity against african green monkey Vero cells
- Type: cell-based
- measurementParameters: chlorocebus sabaeus

So what does the record say about CC50 for C[C@H]1[C@@H](OC[C@@H]2O[C@@H]2CO[C@H]2O[C@@H]3O[C@@]4(C)CC[C@H]5[C@H](C)CC[C@@H]([C@H]2C)[C@@]35OO4)O[C@@H]2O[C@@]3(C)CC[C@H]4[C@H](C)CC[C@@H]1[C@@]24OO3 (relative stereo) ?
> 7.47 µM

Same again, this time with CCN(CC)CCCC(C)Nc1ccnc2cc(Cl)ccc12 (stereo not drawn)
> 14.9 µM

Same again, this time with C[C@H]1[C@@H](OCC(CO[C@H]2O[C@@H]3O[C@@]4(C)CC[C@H]5[C@H](C)CC[C@@H]([C@H]2C)[C@@]35OO4)OS(C)(=O)=O)O[C@@H]2O[C@@]3(C)CC[C@H]4[C@H](C)CC[C@@H]1[C@@]24OO3 (stereo partly drawn)
6.4 µM

----------
- testProtocol: Toxicity against african green monkey Vero cells after 48 hrs by neutral red assay
- Type: cell-based
- measurementParameters: chlorocebus sabaeus, Vero cells; read-out: TC50
outcomeMeasure: CC50 at 48 h

So what does the record say about CC50 at 48 h for `C=C[C@@H](CO[C@H]1O[C@@H]2O[C@@]3(C)CC[C@H]4[C@H](C)CC[C@@H]([C@H]1C)[C@@]24OO3)O[C@H]1O[C@@H]2O[C@@]3(C)CC[C@H]4[C@H](C)CC[C@@H]([C@H]1C)[C@@]24OO3` ?
430 nM

Same again, this time with `CC(=O)O[C@H]1C(=O)[C@@]2(C)[C@H]([C@H](OC(=O)c3ccccc3)[C@]3(O)C[C@H](OC(=O)[C@H](O)[C@@H](NC(=O)c4ccccc4)c4ccccc4)C(C)=C1C3(C)C)[C@]1(OC(C)=O)CO[C@@H]1C[C@@H]2O`
530 nM

----------
- Tested on: SK-MEL
- testProtocol: Cytotoxicity against human SK-MEL cells after 48 hrs by neutral red assay
- Assay type: functional, cell-based
- measurementParameters: sk-mel
outcomeMeasure: IC50

# compoundString, experimentalResult
records = [
    ("C[C@H]1[C@@H](Oc2cccc(N[C@@H]3[C@H](C)O[C@@H]4O[C@@]5(C)CC[C@H]6[C@H](C)CC[C@@H]3[C@@]46OO5)c2)O[C@@H]2O[C@@]3(C)CC[C@H]4[C@H](C)CC[C@@H]1[C@@]24OO3", "Not Active"),
    ("C[C@H]1[C@@H](OC/C=C\\CO[C@H]2O[C@@H]3O[C@@]4(C)CC[C@H]5[C@H](C)CC[C@@H]([C@H]2C)[C@@]35OO4)O[C@@H]2O[C@@]3(C)CC[C@H]4[C@H](C)CC[C@@H]1[C@@]24OO3", "Not Active"),
]

----------
- testProtocol: Toxicity against pig LLC-PK11 cells after 48 hrs by neutral red assay
- Type: cell-based, Sus scrofa
- measurementParameters: LLC-PK11 cells, read-out: TC50
outcomeMeasure: CC50 at 48 h (nM)
The reply should contain only the number, in nM.

So what does the record say about CC50 at 48 h for C[C@H]1[C@@H](OC[C@@H]2O[C@@H]2CO[C@H]2O[C@@H]3O[C@@]4(C)CC[C@H]5[C@H](C)CC[C@@H]([C@H]2C)[C@@]35OO4)O[C@@H]2O[C@@]3(C)CC[C@H]4[C@H](C)CC[C@@H]1[C@@]24OO3 (relative stereo) ?
680

----------
- Test system: Mycobacterium intracellulare
- testProtocol: Antibacterial activity against Mycobacterium intracellular ATCC 23068 by Franzblau method
- Format: functional, organism-based
outcomeMeasure: IC50

Consider the worked cases shown below.
# compound, outcomeMeasure, experimentalResult
rows = [
    ("C[C@H]1[C@@H](O)O[C@@H]2O[C@@]3(C)CC[C@H]4[C@H](C)CC[C@@H]1[C@@]24OO3 [ARTENIMOL]", "IC50", "Not Active"),
    ("C[C@H]1[C@@H](OCC(=O)CO)O[C@@H]2O[C@@]3(C)CC[C@H]4[C@H](C)CC[C@@H]1[C@@]24OO3", "IC50", "Not Active"),
    ("C[C@H]1[C@@H](Oc2cccc(N[C@@H]3[C@H](C)O[C@@H]4O[C@@]5(C)CC[C@H]6[C@H](C)CC[C@@H]3[C@@]46OO5)c2)O[C@@H]2O[C@@]3(C)CC[C@H]4[C@H](C)CC[C@@H]1[C@@]24OO3", "IC50", "Not Active"),
    ("C[C@H]1[C@@H](OC[C@@H](O)[C@@H](O)CO[C@H]2O[C@@H]3O[C@@]4(C)CC[C@H]5[C@H](C)CC[C@@H]([C@H]2C)[C@@]35OO4)O[C@@H]2O[C@@]3(C)CC[C@H]4[C@H](C)CC[C@@H]1[C@@]24OO3 (relative stereo)", "IC50", "Not Active"),
    ("C[C@H]1[C@@H](OCC(=O)CO[C@H]2O[C@@H]3O[C@@]4(C)CC[C@H]5[C@H](C)CC[C@@H]([C@H]2C)[C@@]35OO4)O[C@@H]2O[C@@]3(C)CC[C@H]4[C@H](C)CC[C@@H]1[C@@]24OO3", "IC50", "Not Active"),
]

So what does the record say about IC50 for `C[C@H]1[C@@H](OC/C=C\CO[C@H]2O[C@@H]3O[C@@]4(C)CC[C@H]5[C@H](C)CC[C@@H]([C@H]2C)[C@@]35OO4)O[C@@H]2O[C@@]3(C)CC[C@H]4[C@H](C)CC[C@@H]1[C@@]24OO3` ?
Not Active

Same again, this time with C[C@H]1[C@@H](OCC(CO[C@H]2O[C@@H]3O[C@@]4(C)CC[C@H]5[C@H](C)CC[C@@H]([C@H]2C)[C@@]35OO4)OS(C)(=O)=O)O[C@@H]2O[C@@]3(C)CC[C@H]4[C@H](C)CC[C@@H]1[C@@]24OO3 (stereo partly drawn)
Not Active

Same again, this time with `C[C@H]1[C@@H](OC/C=C\CO)O[C@@H]2O[C@@]3(C)CC[C@H]4[C@H](C)CC[C@@H]1[C@@]24OO3`
Not Active

Same again, this time with C[C@H]1[C@@H](OCC(O)CO[C@H]2O[C@@H]3O[C@@]4(C)CC[C@H]5[C@H](C)CC[C@@H]([C@H]2C)[C@@]35OO4)O[C@@H]2O[C@@]3(C)CC[C@H]4[C@H](C)CC[C@@H]1[C@@]24OO3 (stereo partly drawn)
Not Active

Same again, this time with `C=C[C@@H](CO[C@H]1O[C@@H]2O[C@@]3(C)CC[C@H]4[C@H](C)CC[C@@H]([C@H]1C)[C@@]24OO3)O[C@H]1O[C@@H]2O[C@@]3(C)CC[C@H]4[C@H](C)CC[C@@H]([C@H]1C)[C@@]24OO3`
Not Active

Same again, this time with `C[C@H]1[C@@H](OCc2cc(O)cc(O[C@H]3O[C@@H]4O[C@@]5(C)CC[C@H]6[C@H](C)CC[C@@H]([C@H]3C)[C@@]46OO5)c2)O[C@@H]2O[C@@]3(C)CC[C@H]4[C@H](C)CC[C@@H]1[C@@]24OO3`
Not Active

Same again, this time with C[C@H]1[C@@H](OC[C@@H]2O[C@@H]2CO[C@H]2O[C@@H]3O[C@@]4(C)CC[C@H]5[C@H](C)CC[C@@H]([C@H]2C)[C@@]35OO4)O[C@@H]2O[C@@]3(C)CC[C@H]4[C@H](C)CC[C@@H]1[C@@]24OO3 (relative stereo)
Not Active

Same again, this time with C[C@@H]1CC[C@H]2[C@@H](C)C(=O)O[C@@H]3O[C@@]4(C)CC[C@@H]1[C@]32OO4 [ARTEMISININ]
Not Active
